Assay: Toxicity, LD50, i.p. in male CRCD1 mice
Conditions: mouse, in vivo, ip, male CRCD1 mice (footnote c)
MEASURED ENDPOINT: LD50

Challenge: // query LD50 value for entry O=[N+]([O-])c1nccn1CC(O)CN1CC1 (stereo not shown) [Example 1]
Response given: 610 µmol/kg

====

Experiment: Toxicity, LD50, i.p. in female WHT mice
Details: mouse, in vivo, ip
Listed below: LD50 values for each entry.
Report as a plain number; the unit µmol/kg is understood.

COMPOUND	LD50 [µmol/kg]
CC1(C)CN1CC(O)Cn1ccnc1[N+](=O)[O-] (stereo not shown)	1250

Challenge: // query LD50 value for entry O=[N+]([O-])c1nccn1CC(O)C(O)CN1CC1 (stereo not shown)
Response given: 410

Challenge: Consider next the compound Cc1ncc([N+](=O)[O-])n1CC(O)CN1CC1 (stereo not shown) in the same way.
Response given: 800

Challenge: Consider next the compound CCC1CN1CC(O)Cn1ccnc1[N+](=O)[O-] (stereo not shown) in the same way.
Response given: 580

====

Listed below: LD50 values for each entry.
Experiment: Toxicity, LD50, i.p. in female WHT mice
Conditions: mouse, in vivo, ip
Excerpt: ^b Drugs administered i.p. to .female. WHT mice.

COMPOUND	LD50
C[C@@H]1[C@H](C)N1CC(O)Cn1ccnc1[N+](=O)[O-] (relative stereo) [Example 13]	≤ 1250 µmol/kg

Challenge: // query LD50 value for entry CC1CN1CC(O)Cn1ccnc1[N+](=O)[O-] (stereo not drawn) [Example 4]
Response given: < 580 µmol/kg

Challenge: Consider next the compound CC(C)C1CN1CC(O)Cn1ccnc1[N+](=O)[O-] (stereo not drawn) [Example 9] in the same way.
Response given: ≤ 1180 µmol/kg
